# System: SEM cells
# assay: cell viability relative to DMSO control; higher = less cytotoxic
# condition.set: HPLM + 10% dialyzed FBS; 48 h; 15.4 µM
For each record, write down the corresponding cell viability.
# value in %; strip the unit string

// lookup cell viability for OC[C@H]1O[C@@H](O[C@@H]2[C@@H](CO)O[C@](O)(CO)[C@H]2O)[C@H](O)[C@@H](O)[C@H]1O
63.5

Recorded cell viability of CC(C)[C@@H](N(CCCN)C(=O)C1=CC=C(C)C=C1)C/2=N/C3=CC(=CC=C3C(=O)N2CC4=CC=CC=C4)Cl , please.
21.2

Entry COc1nccc(-c2c(-c3ccc(F)cc3)ncn2C2CCNCC2)n1 has what cell viability?
98.7

# get_value(readout='cell viability', item= C[C@H]1[C@H](NC(=O)/C(=N/OC(C)(C)C(=O)O)c2csc(N)n2)C(=O)N1[S+](=O)([O-])O )
107

Give its cell viability value. Item: CC(C)(C)c1cc(NC(=O)Nc2ccc(-c3cn4c(n3)sc3cc(OCCN5CCOCC5)ccc34)cc2)no1
26.1

Item under review: Nc1ccccc1NC(=O)c1ccc(CNC(=O)OCc2cccnc2)cc1 . Reported cell viability?
7.22

Sample C[C@]\12CC[C@H](O)CC1=C/CC3C2CC[C@@]\4(C)C3C\C=C4[N]5C=NC6=C5C=CC=C6 (some centres undefined) — what was its cell viability?
114

# cell viability lookup, item FC(F)(F)c1ccc(/C=C/c2nc(COc3ccc(CCCCn4ccnn4)cc3)co2)cc1
109

Could you tell me which cell viability is on file for Cc1ccccc1N1C(=O)c2cc([S+](N)(=O)[O-])c(Cl)cc2NC1C (centres undefined) ?
107

What does the data say about its cell viability? Entry: COc1cnc(N[S+](=O)([O-])c2ccc(N)cc2)nc1
102

// lookup cell viability for COc1cc2c(cc1OC)C1CC(=O)C(CC(C)C)CN1CC2 (centres undefined)
103

Quick one: cell viability for OC1=C(O)C2=C(\C=C/C(=O)O2)C=C1 ?
93.9

GET /values?readout=cell viability&item= CN(CC#C)C/C1=C/C2=CC=CC=C2OC3=CC=CC=C13
49.2

Give the measured cell viability of c1cncc(CN2CCC(n3ncc4c(N5CCOCC5)nc(-c5ccc6[nH]ccc6c5)nc43)CC2)c1 .
58.9

# get_value(readout='cell viability', item= CCc1cncnc1N1CCN(Cc2nc3cc(C(F)(F)F)ccc3[nH]2)CC1 )
62.4

Reported cell viability for C[C@H](O)[C@H]1[C@@H]2[C@H](C)C(=C(\N2C1=O)C(O)=O)/S[C@@H]3CN[C@H](CN[S+](N)([O-])=O)C3 : what is it?
108

Which cell viability value belongs to CC1(C)Cc2c(-c3ccccc3)c(-c3ccc(Cl)cc3)c(CC(=O)O)n2C1 ?
112

Give its cell viability value. Item: COc1cc2nc(N(C)CCCNC(=O)C3CCCO3)nc(N)c2cc1OC (centres undefined)
79.2

Any idea what its cell viability is? The compound is NC1(Cc2ccc(Cl)cc2)CCN(c2ncnc3[nH]ccc23)CC1
6.62

What cell viability value was documented for this compound, CC/1=C/C(=O)N(O)/C(=C1)C2CCCCC2 ?
50.8

Param item = O=C1c2c(O)cc(O)cc2O[C@H](c2ccc(O)c(O)c2)[C@H]1O ; retrieve measured cell viability.
127

For the compound C[C@]12CC[C@@H]3c4ccc(OC(=O)N(CCCl)CCCl)cc4CC[C@H]3[C@@H]1CC[C@@H]2OP(=O)([O-])[O-].[Na+].[Na+] , what cell viability is on record?
62.5

State the recorded cell viability for this entry: OC1=CC=C(C=C1)\C2=C\OC3=C(C=CC(=C3)O)C2=O
101

Which cell viability value is on record for CC(=O)Oc1ccccc1C(=O)O ?
99.9

Give the measured cell viability of CC(=O)O[C@H]1C(=O)[C@]2(C)[C@@H](O)C[C@H]3OC[C@@]3(OC(C)=O)C2[C@H](OC(=O)C4=CC=CC=C4)[C@]5(O)C[C@H](OC(=O)[C@H](O)[C@@H](NC(=O)C6=CC=CC=C6)C7=CC=CC=C7)\C(=C1/C5(C)C)C (some centres undefined) .
22.6

Sample CC(C)OC(=O)OCOP(=O)(CO[C@H](C)Cn1cnc2c(N)ncnc21)OCOC(=O)OC(C)C.O=C(O)C=CC(=O)O — what was its cell viability?
105

Report cell viability for CN\1C(=O)/C(=C(\N=C1N2CCCC[S+]2([O-])=O)C(=O)NCC3=CC=C(F)C=C3)O please.
109

Consider the compound COc1c(C)cnc(Cn2cnc3c(Cl)nc(N)nc32)c1C and give its measured cell viability.
22.3

Recorded cell viability for CCCCCCCCCCCCCCCCCCCCCCO , please?
123

---

# System: P12-Ichikawa
# assay: cell viability relative to DMSO control; higher = less cytotoxic
# condition.set: RPMI 5 mM glucose + 10% dialyzed FBS; 48 h; 0.000781 µM
I'd be grateful if you could share measured cell viability for these entries.
API: value field is a number in %; no unit string.

Enter reported cell viability observed with P12-Ichikawa for COc1cccc2cc(-c3nc(C4CCC(C(=O)O)CC4)n4ncnc(N)c34)[nH]c12 (stereo not drawn)
115

Request: cell viability, test system P12-Ichikawa, entry CCc1cc(Nc2nccc(-c3c(-c4ccc(OC)c(C(=O)Nc5c(F)cccc5F)c4)nc4ccccn34)n2)c(OC)cc1N1CCC(N2CCN([S+](C)(=O)[O-])CC2)CC1
108

What reported cell viability corresponds to O=NN(CCCl)C(=O)NCCCl on P12-Ichikawa?
87

Report cell viability for C[C@]\12CC[C@H](O)CC1=C/CC3C2CC[C@@]\4(C)C3C\C=C4[N]5C=NC6=C5C=CC=C6 (stereo partly drawn) tested on P12-Ichikawa.
89.6

cell viability of CC1(C)Cc2c(-c3ccccc3)c(-c3ccc(Cl)cc3)c(CC(=O)O)n2C1 on P12-Ichikawa?
106

Field: cell viability (P12-Ichikawa). Entry: CC[C@H](CC[C@@H](C)[C@H]1CC[C@H]2[C@@H]3C\C=C/4C[C@@H](O)CC[C@]4(C)[C@H]3CC[C@]12C)C(C)C
110

Identify the measured cell viability of CC1(C)CCC[C@]2(C)[C@H]3CC(=O)O[C@]3(C)CC[C@@H]12 for P12-Ichikawa.
110

Give P12-Ichikawa cell viability for CC\1=C(C(\N=C(/N1)C2=CC(=NC=C2)Cl)C3=C(F)C=C(Cl)C=C3)/C(=O)NC4=C(F)C=C5[NH]N=CC5=C4 (stereo not drawn)
105

---

# Tested on: NOMO1
# assay: cell viability relative to DMSO control; higher = less cytotoxic
# condition.set: RPMI 5 mM glucose + 10% FBS; 48 h; 0.00234 µM
property.measured: cell viability (%)
Answer with a number only, understood to be in %.

Query: cell viability; subject: NC[C@H]1CC[C@H](C(=O)O)CC1
133

What value of measured cell viability is listed for Cc1cc(CN2CCN(c3c(Br)cnc4[nH]c(-c5ccc(N6CCN(C)CC6)cc5)nc34)CC2)no1 ?
131

Name the reported cell viability value associated with the compound Cc1cc(OCCCc2c(C(=O)O)n(Cc3cccnc3)c3c(-c4c(COc5ccc(N6CCN([S+](C)(=O)[O-])CC6)cc5)nn(C)c4C)cccc23)cc(C)c1Cl
87.7

Could you share which cell viability value was measured for FC(F)(F)c1ccc(/C=C/c2nc(COc3ccc(CCCCn4ccnn4)cc3)co2)cc1 ?
122

Entry Cc1c(CN2CCN(C(=O)[C@H](C)O)CC2)sc2c(N3CCOCC3)nc(-c3cnc(N)nc3)nc12 has what cell viability?
93.6

What value of measured cell viability is listed for COC1=C(N2CCNC(C)C2)C(=CC3=C1N(\C=C(C(O)=O)/C3=O)C4CC4)F (stereo not drawn) ?
87.7

Quick one: cell viability of CC1=CC=CC=C1N2\C(=N/C3=C(C(=CC=C3)C)C2=O)C[N]4C=NC5=C4N=CN=C5N ?
106

Quick check: cell viability of CN[S+](=O)([O-])Cc1ccc2[nH]cc(CCN(C)C)c2c1 ?
124

---

# Tested on: SEM cells
# assay: cell viability relative to DMSO control; higher = less cytotoxic
# condition.set: HPLM + 10% dialyzed FBS; 48 h; 0.00702 µM
I'd appreciate it if you could supply cell viability values for the items below.
Write the number in % without appending the unit.

Given O=NN(CCCl)C(=O)NC1CCCCC1 , state its recorded cell viability.
94.3

What value of measured cell viability is listed for NCC1(CC(=O)O)CCCCC1 ?
107

Would you kindly share the measured cell viability for O=c1c(-c2ccc(O)cc2)coc2cc(O[C@@H]3O[C@H](CO)[C@@H](O)[C@H](O)[C@H]3O)ccc12 ?
115

Quick check: cell viability of COc1c(C)cnc(Cn2cnc3c(Cl)nc(N)nc32)c1C ?
103

Item COc1ccc(Cc2ccc(NC(N)=O)cc2)cc1-c1cccc(Cl)c1 has what recorded cell viability?
110

Which cell viability value belongs to CC(C)C(C)/C=C/C(C)C1CCC2C3=CC=C4CC(O)CCC4(C)C3CCC21C (stereo unspecified) ?
86.7

Give the measured cell viability of CC(=O)O.Cc1c(-c2ccc(O)cc2)n(Cc2ccc(OCCN3CCCCCC3)cc2)c2ccc(O)cc12 .
91.9

I am curious: what cell viability value has been reported for CC(C)NCC(O)COc1ccc(COCCOC(C)C)cc1 (stereo unspecified) ?
122

What value of cell viability has been recorded for this entry: OC1=CC=C(C=C1)\C2=C\OC3=C(C=CC(=C3)O)C2=O
103

Query (molecule): COc1cc2c(cc1OC)C1CC(=O)C(CC(C)C)CN1CC2 (stereo unspecified) ; field requested: cell viability
99.6

Which cell viability value belongs to COC1=NC(=NC(=C1N\C2=N\CCN2)Cl)C ?
47.6

Which cell viability is reported for this molecule? COC(=O)Nc1nc2cc(C(=O)c3cccs3)ccc2[nH]1
94.1

Name the recorded cell viability for C[C@H](NC(=O)/C(C#N)=C/c1cccc(Br)n1)c1ccccc1 .
98.7

Using the record for Cc1ccccc1N1C(=O)c2cc([S+](N)(=O)[O-])c(Cl)cc2NC1C (stereo unspecified) , report its cell viability.
105

Can you share its cell viability? I mean this molecule: CCCc1nc(C(C)(C)O)c(C(=O)O)n1Cc1ccc(-c2ccccc2-c2nn[nH]n2)cc1
97.3

# get_value(readout='cell viability', item= COC1=C(N2CCNC(C)C2)C(=CC3=C1N(\C=C(C(O)=O)/C3=O)C4CC4)F (stereo unspecified) )
83.1

Would you kindly share the measured cell viability for CCC(C)SSc1ncc[nH]1 (stereo unspecified) ?
107

Which measured cell viability value corresponds to Nc1ccccc1NC(=O)c1ccc(CNC(=O)OCc2cccnc2)cc1 ?
120

For the molecule c1cncc(CN2CCC(n3ncc4c(N5CCOCC5)nc(-c5ccc6[nH]ccc6c5)nc43)CC2)c1 , what cell viability is on record?
98.3

If you can, please state the reported cell viability value of NC[C@H]1CC[C@H](C(=O)O)CC1 .
113

Tell me the measured cell viability of COC1=CC=CC2=C1C(=NC(=N2)C3=CC=CS3)NN4C(=O)\C=C(C)/C4=O , please.
101
